Origin of measurements: patent US20240391954A1

- testedTarget: human MC4R receptor (human, UniProt P32245 1-332)
- Sequence (P32245 whole entry): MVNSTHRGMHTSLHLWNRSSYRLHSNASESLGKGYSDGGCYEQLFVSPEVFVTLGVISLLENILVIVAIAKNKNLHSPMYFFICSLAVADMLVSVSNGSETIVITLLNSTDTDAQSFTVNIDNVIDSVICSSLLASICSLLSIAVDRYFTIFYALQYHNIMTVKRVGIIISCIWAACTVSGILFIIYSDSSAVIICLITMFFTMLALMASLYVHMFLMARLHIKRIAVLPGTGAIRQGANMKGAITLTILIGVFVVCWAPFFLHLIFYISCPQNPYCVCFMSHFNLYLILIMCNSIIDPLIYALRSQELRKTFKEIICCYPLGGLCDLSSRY
- experimentalProtocol: cell-based or functional assay
Starred links: 1 amine or outer side, 2 acyl side, 3 side chain; linkers in the order of their positions; H or OH if unused. Positions of bridges follow the written chain, without caps; N, C: chain ends. Non-standard residues stand in square brackets, D forms with d. Primed or numbered codes have the meaning given here. dTyr(4-OMe)″ = O-methyl-D-tyrosine, COc1ccc(C[C@@H](N[*:1])C(=O)[*:2])cc1; 2Nal = N[C@@H](Cc1ccc2ccccc2c1)C(=O)O; Cit = NC(=O)NCCC[C@H](N)C(=O)O; Nle = CCCC[C@H](N)C(=O)O; Aib = CC(C)(N)C(=O)O
Entries and their cAMP EC50 values follow.
Report the value in nM with no unit label.

[[record]]
binder = "Ac-CG[Cit][dF]RWC-NH2 (disulfide 1-7; SMILES CC(=O)N[C@H]1CSSC[C@@H](C(N)=O)NC(=O)[C@H](Cc2c[nH]c3ccccc23)NC(=O)[C@H](CCCNC(=N)N)NC(=O)[C@@H](Cc2ccccc2)NC(=O)[C@H](CCCNC(N)=O)NC(=O)CNC1=O) [CTX-1630]"
result = 22

[[record]]
binder = "Ac-[Nle]CH[2Nal]R[dW]CRFG-NH2 (disulfide 2-7; SMILES CCCC[C@H](NC(C)=O)C(=O)N[C@H]1CSSC[C@@H](C(=O)N[C@@H](CCCNC(=N)N)C(=O)N[C@@H](Cc2ccccc2)C(=O)NCC(N)=O)NC(=O)[C@@H](Cc2c[nH]c3ccccc23)NC(=O)[C@H](CCCNC(=N)N)NC(=O)[C@H](Cc2ccc3ccccc3c2)NC(=O)[C@H](Cc2c[nH]cn2)NC1=O) [CTX-2128]"
result = 7210

[[record]]
binder = "{CH2CO}-[dA]R[dF]RFC-NH2 (thioether N-6; SMILES C[C@H]1NC(=O)CSC[C@@H](C(N)=O)NC(=O)[C@H](Cc2ccccc2)NC(=O)[C@H](CCCNC(=N)N)NC(=O)[C@@H](Cc2ccccc2)NC(=O)[C@H](CCCNC(=N)N)NC1=O) [CTX-1657]"
result = 2470


*Q* Which cAMP EC50 is listed for Ac-RC[Aib]R[dTyr(4-OMe)″]RFC-NH2 (disulfide 2-8) [CTX-1298] ?
*A* 3.3

*Q* Subsequent entry: Ac-RC[dA]R[dF]RWC-NH2 (disulfide 2-8; SMILES CC(=O)N[C@@H](CCCNC(=N)N)C(=O)N[C@H]1CSSC[C@@H](C(N)=O)NC(=O)[C@H](Cc2c[nH]c3ccccc23)NC(=O)[C@H](CCCNC(=N)N)NC(=O)[C@@H](Cc2ccccc2)NC(=O)[C@H](CCCNC(=N)N)NC(=O)[C@@H](C)NC1=O) [CTX-1211]
*A* 0.38

*Q* Subsequent entry: {CH2CO}-G[Cit][dF]RWC-NH2 (thioether N-6; SMILES N=C(N)NCCC[C@@H]1NC(=O)[C@@H](Cc2ccccc2)NC(=O)[C@H](CCCNC(N)=O)NC(=O)CNC(=O)CSC[C@@H](C(N)=O)NC(=O)[C@H](Cc2c[nH]c3ccccc23)NC1=O) [CTX-1646]
*A* 13
